- System: adenovirus type 6 (ADV6)
- run-description: Evaluation of anti-adenovirus activity: CRL-11516 cells infected with ADV6, anti-hexon staining, count of stained cells
- Assay type: cell-based
- run-parameters: read-out: Anti-AdV activity EC50; CRL-11516 cells infected with ADV6, 48 hours culture, concentration reducing dark brown-stained cells by 50%
pEC50: −log10 of the molar value.
measured-endpoint: pEC50

[
  {
    "molecule": "COc1nc(N)nc2c1ncn2[C@H]1C=C[C@@H](COP(=O)(OCCSC(=O)C(C)(C)C)Oc2ccccc2)C1 (some centres unmarked) [Example 4-7-2]",
    "system-name": "adenovirus type 6 (ADV6)",
    "measured-endpoint": "pEC50",
    "observed-result": "7.00 to 8.00"
  },
  {
    "molecule": "COc1nc(N)nc2c1ncn2[C@H]1C=C[C@@H](COP(=O)(OCCSC(=O)C(C)(C)C)Oc2ccccc2)C1 (some centres unmarked) [Example 2-1]",
    "system-name": "adenovirus type 6 (ADV6)",
    "measured-endpoint": "pEC50",
    "observed-result": "> 8.00"
  }
]

---

- Tested on: adenovirus type 6 (ADV6)
- run-description: Evaluation of anti-adenovirus activity: CRL-11516 cells infected with ADV6, anti-hexon staining, count of stained cells
- Type: cell-based
- run-parameters: Human mastadenovirus C, 48 h, CRL-11516 cells infected with ADV6, 48 hours culture, concentration reducing dark brown-stained cells by 50%; read-out: Anti-AdV activity EC50
pEC50: −log10 of the molar value.
Below, each entry is listed alongside its reported pEC50.

[
  {
    "molecule": "COC(=O)[C@H](C)NP(=O)(OC[C@@H]1C=C[C@H](n2cnc3c(OC)nc(N)nc32)C1)Oc1ccc(Cl)cc1 (stereo partly shown)",
    "pEC50": "> 8.00"
  },
  {
    "molecule": "CC(C)OC(=O)[C@H](C)NP(=O)(OC[C@@H]1C=C[C@H](n2cnc3c(NC4CC4)nc(N)nc32)C1)Oc1ccccc1 (stereo partly shown)",
    "pEC50": "6.00 to 7.00"
  },
  {
    "molecule": "COC(=O)[C@H](C)NP(=O)(OC[C@@H]1C=C[C@H](n2cnc3c(OC)nc(N)nc32)C1)Oc1ccccc1 (stereo partly shown)",
    "pEC50": "7.00 to 8.00"
  },
  {
    "molecule": "CC(C)OC(=O)[C@H](C)N[P@@](=O)(OC[C@@H]1C=C[C@H](n2cnc3c(OC(C)C)nc(N)nc32)C1)Oc1ccccc1",
    "pEC50": "7.00 to 8.00"
  },
  {
    "molecule": "COCCOc1nc(N)nc2c1ncn2[C@H]1C=C[C@@H](CO[P@](=O)(N[C@@H](C)C(=O)OC(C)C)Oc2ccccc2)C1",
    "pEC50": "7.00 to 8.00"
  },
  {
    "molecule": "CNc1nc(N)nc2c1ncn2[C@H]1C=C[C@@H](COP(=O)(N[C@@H](C)C(=O)OC)Oc2ccc(Br)cc2)C1 (stereo partly shown)",
    "pEC50": "> 8.00"
  },
  {
    "molecule": "CCOC(=O)[C@H](C)NP(=O)(OC[C@@H]1C=C[C@H](n2cnc3c(OC)nc(N)nc32)C1)Oc1ccccc1 (stereo partly shown)",
    "pEC50": "7.00 to 8.00"
  },
  {
    "molecule": "COc1nc(N)nc2c1ncn2[C@H]1C=C[C@@H](COP(=O)(N[C@@H](C)C(=O)OC(C)C)Oc2ccc(Cl)cc2)C1 (stereo partly shown)",
    "pEC50": "7.00 to 8.00"
  },
  {
    "molecule": "COC(=O)[C@H](C)NP(=O)(OC[C@@H]1C=C[C@H](n2cnc3c(NC4CC4)nc(N)nc32)C1)Oc1ccccc1 (stereo partly shown)",
    "pEC50": "7.00 to 8.00"
  },
  {
    "molecule": "CC(C)OC(=O)[C@H](C)N[P@@](=O)(OC[C@@H]1C=C[C@H](n2cnc3c(N4CCC4)nc(N)nc32)C1)Oc1ccccc1",
    "pEC50": "7.00 to 8.00"
  },
  {
    "molecule": "COc1cccc(OP(=O)(N[C@@H](C)C(=O)OC(C)C)OC[C@@H]2C=C[C@H](n3cnc4c(OC)nc(N)nc43)C2)c1 (stereo partly shown)",
    "pEC50": "7.00 to 8.00"
  },
  {
    "molecule": "COC(=O)C(C)(C)NP(=O)(OC[C@@H]1C=C[C@H](n2cnc3c(OC)nc(N)nc32)C1)Oc1ccc(Br)cc1 (stereo partly shown)",
    "pEC50": "> 8.00"
  },
  {
    "molecule": "COc1nc(N)nc2c1ncn2[C@H]1C=C[C@@H](COP(=O)(N[C@@H](C)C(=O)OC2CC2)Oc2ccccc2)C1 (stereo partly shown)",
    "pEC50": "7.00 to 8.00"
  }
]
